Reference for the values: patent US20240309103A1

Molecular target: T1, mfNPR1-mFc (monkey)
T1 construct: also called dimeric monkey NPR1
T1 chain: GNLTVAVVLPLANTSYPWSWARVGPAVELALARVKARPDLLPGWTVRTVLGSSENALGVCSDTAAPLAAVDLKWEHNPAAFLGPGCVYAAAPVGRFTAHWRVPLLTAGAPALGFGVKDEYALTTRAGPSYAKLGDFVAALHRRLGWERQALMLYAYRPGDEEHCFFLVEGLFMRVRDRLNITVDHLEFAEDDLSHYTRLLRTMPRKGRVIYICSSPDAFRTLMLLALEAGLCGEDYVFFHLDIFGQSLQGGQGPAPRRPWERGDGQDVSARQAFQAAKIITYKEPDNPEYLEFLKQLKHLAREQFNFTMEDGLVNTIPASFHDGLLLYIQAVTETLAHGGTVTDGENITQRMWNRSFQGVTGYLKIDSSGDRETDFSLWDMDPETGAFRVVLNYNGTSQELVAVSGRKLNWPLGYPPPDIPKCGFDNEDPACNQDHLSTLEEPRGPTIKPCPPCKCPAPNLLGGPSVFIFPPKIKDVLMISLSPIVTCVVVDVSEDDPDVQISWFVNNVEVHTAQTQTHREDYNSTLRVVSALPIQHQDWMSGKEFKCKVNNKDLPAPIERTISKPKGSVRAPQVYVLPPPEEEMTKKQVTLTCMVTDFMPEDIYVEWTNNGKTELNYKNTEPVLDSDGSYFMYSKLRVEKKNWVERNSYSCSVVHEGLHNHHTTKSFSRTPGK
Test: SPR, mAb captured, 37C
test-readout: t½ (h)
Express your answer in h, writing the number without its unit.

## Task Could you share which t½ value was measured for mAb22035 (antibody, human IgG4, V domains shown) VH: EVQLVESGGGLVQPGRSLRLSCAASGFTFDDYAMHWVRQAPGKGLEWVSGISWNSGTIGYADSVKGRFTMSRDNAKNSLYLQMNSLRPEDTALYYCAKDMGVSLALWGAFDIWGQGTMVTVSS VL: DIQMTQSPSSLSASVGDKVTITCRASQNIRTYLNWYQQKPGKAPKVLISTASSLQSGVPSRFSGSGSGTDFTLTISSLQPEDFAVFYCQQSFGIPRTFGQGTKVEIK ?
## Result 2.28

## Task Could you share which t½ value was measured for mAb25497 (antibody, human IgG4, V domains shown) VH: QVQLVQSGAEVKEPGASVKVSCKASGYTFTDYYIHWVRQAPGQGLEWMGWINLNSGGKNHAQKFQGRVTVTSDTSINTAYIELGRLRGDDTAVYYCSRGGGSHYYYYYHGMDVWGQGTTVTVSS VL: DIQMTQSPSSLSASVGDRITITCRASHSIDSYLNWYQQKPGKAPKLLIYPASTLQSGVPSRFSGSGSGTDFTLTISSLQPEDSAIYYCQQSYSTPLTFGGGTKVEIK ?
## Result 0.872

## Task Could you share which t½ value was measured for mAb25508 (antibody, human IgG4, V domains shown) VH: EVQLVESGGGVVRPGGSLRLSCAASGFNVDDYGMSWVRQIPGKGLEWISGINWNGGRIYYADSMKGRITISRDNAKNSLYLQMNSLRAEDTALYHCVRDQWLVRGLDYWGQGTLVTVSS VL: DIQMTQSPSSLSASVGDRVTITCRASQGIYNYLAWFQQKPGKAPKSLIYAASSLQSGVPSKFSGSGSGTDFTLTISSLQPEDFATYYCQQYNTYPYTFGQGTKLEIK ?
## Result 2.3
